Some molecules, each annotated with its measured C. albicans 96-489 MIC.
# Tested on: C. albicans 96-489
# assay.details: antifungal microbroth dilution assay, C. albicans 96-489
# Format: cell-based, Candida albicans
# condition.parameters: Table 7; microbroth dilution

molecule | target.of.assay | C. albicans 96-489 MIC
C=C1C[C@@H]2C[C@@H]3CCO[C@@H](O3)c3coc(n3)/C=C/C[C@H]3O[C@@H](/C(C)=C/I)[C@H](C)[C@@H](OC(=O)/C=C\C[C@@H](C1)O2)[C@H]3C [Compound (Z, E)-15] | C. albicans 96-489 | >64 mg/L
C=C1C[C@@H]2C[C@@H]3CCO[C@@H](O3)c3coc(n3)/C=C/C[C@H]3O[C@@H](/C(C)=C/C#N)[C@H](C)[C@@H](OC(=O)/C=C/C[C@@H](C1)O2)[C@H]3C [Compound (E, E)-5] | C. albicans 96-489 | 32 mg/L

Give C. albicans 96-489 C. albicans 96-489 MIC for the following molecule: C=C1C[C@@H]2C[C@@H]3CCO[C@@H](O3)c3coc(n3)/C=C/C[C@H]3O[C@@H](/C(C)=C/C#N)[C@H](C)[C@@H](OC(=O)/C=C\C[C@@H](C1)O2)[C@H]3C [Compound (Z, E)-5] >64 mg/L

Answer with C. albicans 96-489 MIC of C=C1C[C@@H]2C[C@@H]3CCO[C@@H](O3)c3coc(n3)/C=C/C[C@H]3O[C@@H](/C(C)=C/I)[C@H](C)[C@@H](OC(=O)/C=C/C[C@@H](C1)O2)[C@H]3C [Compound (E, E)-15] measured for C. albicans 96-489. >64 mg/L
